Where do these numbers come from? They come from ChEMBL document CHEMBL4196205.

Provide the recorded pIC50 for the entries that follow.
# tested_on: Tyrosine-protein phosphatase non-receptor type 1 (Homo sapiens)
# Sequence (P18031 whole entry): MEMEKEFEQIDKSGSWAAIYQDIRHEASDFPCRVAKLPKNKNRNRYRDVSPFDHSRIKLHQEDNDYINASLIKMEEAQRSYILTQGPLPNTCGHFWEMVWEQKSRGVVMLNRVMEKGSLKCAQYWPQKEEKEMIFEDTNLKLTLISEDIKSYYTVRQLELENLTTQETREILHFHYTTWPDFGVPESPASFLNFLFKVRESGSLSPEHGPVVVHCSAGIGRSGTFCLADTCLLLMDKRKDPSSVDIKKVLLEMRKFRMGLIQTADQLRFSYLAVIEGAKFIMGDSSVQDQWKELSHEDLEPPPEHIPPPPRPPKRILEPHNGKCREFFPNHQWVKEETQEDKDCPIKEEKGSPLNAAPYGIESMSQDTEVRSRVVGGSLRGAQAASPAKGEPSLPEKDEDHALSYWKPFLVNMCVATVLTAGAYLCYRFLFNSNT
# test_protocol: Inhibition of recombinant human PTP1B using pNPP as substrate assessed as residual activity after 30 mins by spectrometric method
Answers are plain numbers, as −log10 of the molar value.

{"molecule": "O=C1OC[C@H]2O[C@@H](Oc3cc(O)c(C(=O)CCc4ccc(O)cc4)c(O)c3)[C@H](O)[C@@H](O)[C@@H]2OC(=O)c2cc(O)c(O)c(O)c2-c2c1cc(O)c(O)c2O", "pIC50": 4.62}

Please state, for each entry, its recorded pIC50.
1. O=C1OC[C@H]2O[C@@H](Oc3cc(O)c(C(=O)CCc4ccccc4)c(O)c3)[C@H](O)[C@@H](O)[C@@H]2OC(=O)c2cc(O)c(O)c(O)c2-c2c1cc(O)c(O)c2O [THONNINGIANIN B]
2. O=C(O[C@@H]1[C@@H](O)[C@H](Oc2cc(O)cc(O)c2C(=O)CCc2ccc(O)c(O)c2)O[C@@H]2COC(=O)c3cc(O)c(O)c(O)c3-c3c(cc(O)c(O)c3O)C(=O)O[C@@H]12)c1cc(O)c(O)c(O)c1
3. O=C(O[C@@H]1[C@@H](O)[C@H](Oc2cc(O)c(C(=O)CCc3ccccc3)c(O)c2)O[C@@H]2COC(=O)c3cc(O)c(O)c(O)c3-c3c(cc(O)c(O)c3O)C(=O)O[C@@H]12)c1cc(O)c(O)c(O)c1 [THONNINGIANIN A]
4. O=C(O[C@@H]1[C@@H](O)[C@H](Oc2cc(O)cc(O)c2C(=O)CCc2ccc(O)cc2)O[C@@H]2COC(=O)c3cc(O)c(O)c(O)c3-c3c(cc(O)c(O)c3O)C(=O)O[C@@H]12)c1cc(O)c(O)c(O)c1

1: 4.66; 2: 4.61; 3: 5.36; 4: 4.71
